Data provenance: patent US20230322771A1

Measurement Target: GLP-1 Receptor (Homo sapiens)
Sequence (P43220 24-463): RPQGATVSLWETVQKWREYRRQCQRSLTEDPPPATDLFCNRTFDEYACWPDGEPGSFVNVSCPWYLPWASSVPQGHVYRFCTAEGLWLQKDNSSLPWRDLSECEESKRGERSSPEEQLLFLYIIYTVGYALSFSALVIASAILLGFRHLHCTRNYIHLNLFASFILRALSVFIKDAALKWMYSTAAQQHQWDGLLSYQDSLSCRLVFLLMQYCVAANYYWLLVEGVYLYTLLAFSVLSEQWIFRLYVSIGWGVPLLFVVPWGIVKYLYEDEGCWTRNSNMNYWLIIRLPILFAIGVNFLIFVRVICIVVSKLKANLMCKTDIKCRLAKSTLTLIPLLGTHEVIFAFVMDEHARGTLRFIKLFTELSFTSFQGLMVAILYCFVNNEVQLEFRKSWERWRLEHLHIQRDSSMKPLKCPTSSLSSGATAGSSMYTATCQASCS
Test Name: GLP-1R agonist cAMP stimulation assay (HEK293/GLP1R/CRE-LUC cells, HTRF cAMP dynamic 2 kit)
Type: cell-based
Condition: HEK293/CRE-Luc cell line (HDB) stably expressing GLP-1 Receptor; 30 min incubation at 37° C.; read-out: GLP1R cAMP Stimulation DR: EC50 (nM) [Species: Human, Assay Cell Line: HDB]
Metric: log10 of EC50 (log10 of the value in nM)
Quick note: numbers are log10 of EC50, with nM as the unit.

Molecule	Measurement Target	log10 of EC50
CCS(=O)(=O)C(C)c1ccc(-n2ccn(-c3c4c(nn3-c3cc(C)c(F)c(C)c3)CCN(C(=O)c3cc5cc(C6CCOCC6)ccc5n3[C@@]3(c5noc(=O)[nH]5)C[C@@H]3C)[C@H]4C)c2=O)c(F)c1 (stereo partly shown) [Compound 111a]	GLP-1 Receptor (Homo sapiens)	-0.49
CNS(=O)(=O)c1ccc(-n2ccn(-c3c4c(nn3-c3cc(C)c(F)c(C)c3)CCN(C(=O)c3cc5cc(C6CCOCC6)ccc5n3[C@@]3(c5noc(=O)[nH]5)C[C@@H]3C)[C@H]4C)c2=O)cc1 [Compound 104a]	GLP-1 Receptor (Homo sapiens)	-1.09
CCS(=O)(=O)C(C)c1ccc(-n2ccn(-c3c4c(nn3-c3cc(C)c(F)c(C)c3)CCN(C(=O)c3cc5cc(C6CCOCC6)ccc5n3C3(c5noc(=O)[nH]5)CC3)[C@H]4C)c2=O)c(F)c1 (stereo partly shown) [Compound 113a]	GLP-1 Receptor (Homo sapiens)	-0.26
CCS(=O)(=O)Cc1ccc(-n2ccn(-c3c4c(nn3-c3cc(C)c(F)c(C)c3)CCN(C(=O)c3cc5cc(C6CCOCC6)ccc5n3[C@@]3(c5noc(=O)[nH]5)C[C@@H]3C)[C@H]4C)c2=O)cc1 [Compound 103a]	GLP-1 Receptor (Homo sapiens)	-1.19
Cc1cc(-n2nc3c(c2-n2ccn(-c4ccc(NS(C)(=O)=O)cc4)c2=O)[C@H](C)N(C(=O)c2cc4cc(C5CCOCC5)ccc4n2[C@@]2(c4noc(=O)[nH]4)C[C@@H]2C)CC3)cc(C)c1F [Compound 105a]	GLP-1 Receptor (Homo sapiens)	-1.44
Cc1cc(-n2nc3c(c2-n2ccn(-c4cccc(N5CCCS5(=O)=O)c4)c2=O)[C@H](C)N(C(=O)c2cc4cc(C5CCOCC5)ccc4n2[C@@]2(c4noc(=O)[nH]4)C[C@@H]2C)CC3)cc(C)c1F [Compound 106a]	GLP-1 Receptor (Homo sapiens)	-0.15

The value of log10 of EC50 measured for the molecule Cc1cc(-n2nc3c(c2-n2ccn(-c4cccc(CS(C)(=O)=O)c4)c2=O)[C@H](C)N(C(=O)c2cc4cc(C5CCOCC5)ccc4n2[C@@]2(c4noc(=O)[nH]4)C[C@@H]2C)CC3)cc(C)c1F [Compound 102a] turned out to be -0.57
